Exercise: for every item that follows, state its recorded TGI.
# System: MALME-3M melanoma
# Protocol Summary: NCI tumour cell line growth inhibition, 48 h

{"Compound": "O=C(c1ccccc1)N1CCC(Nc2nccs2)O1 (centres undefined)", "TGI": "> 10 µM"}

State the recorded TGI for every item in the following list.
1. Cc1cc2c(cc1Cl)SC(C(=O)c1ccc(Cl)c(Cl)c1)NS2(=O)=O (centres undefined)
2. Cc1cc(C#Cc2ccccc2)ccc1-n1c(/C=C/c2cc(O)ccc2O)nc2ccccc2c1=O
3. CCCCC(C(=O)CCC(=O)Nc1ccc(Cl)cc1)C(=O)C(C)C (centres undefined)
4. Cc1ccc(/C=C2\NC(=S)N(CN3CCCCC3)C2=O)cc1
5. C=C(C)CC(C)(c1cc2ccccc2n1C)N1CCOCC1 (centres undefined)
6. Cc1c(N=Nc2ccc(Cl)cc2)c(C)n(C2OC(CO)C(O)C(O)C2O)c(=S)c1C#N (centres undefined)
7. NC(=O)c1cc([N+](=O)[O-])cc([N+](=O)[O-])c1

### Response
1: > 100 µM; 2: 3.72 µM; 3: > 100 µM; 4: > 100 µM; 5: > 100 µM; 6: 46.3 µM; 7: > 100 µM

Please give TGI, item by item, for the list that follows.
1. CC(NC(=O)OC(C)(C)C)C(=O)NC(Cc1ccccc1)C(=O)NCC(=O)Oc1c(Cl)c(Cl)c(Cl)c(Cl)c1Cl (centres undefined)
2. CN(C)c1ccc(/C=c2/c3ccccc3n3c2cc(NC(=O)NCCC[N+](C)(C)C)[n+]3C)cc1
3. CCN1C(=O)N(CC)C2C1NN=c1s/c(=C\c3ccc(OC)cc3)c(=O)n12 (centres undefined)
4. CCCCc1ccc(Nc2nc(Cl)c3ncn(C4CC(Oc5ccc(C)cc5)C(COc5ccc(C)cc5)O4)c3n2)cc1 (centres undefined)
5. Oc1ccc(-c2nc3cc(F)ccc3s2)cc1
6. CCCCCCCN(CCCCCCC)CC(O)c1cc2ccccc2c2cc(Br)ccc12 (centres undefined)

### Response
1: 49.2 µM; 2: > 100 µM; 3: > 100 µM; 4: > 100 µM; 5: 43.3 µM; 6: 40.7 µM
